- Test System: SHP2 (Homo sapiens)
- Construct: endogenous in cells; host or cells: MV 411
- Sequence (Q06124 whole entry): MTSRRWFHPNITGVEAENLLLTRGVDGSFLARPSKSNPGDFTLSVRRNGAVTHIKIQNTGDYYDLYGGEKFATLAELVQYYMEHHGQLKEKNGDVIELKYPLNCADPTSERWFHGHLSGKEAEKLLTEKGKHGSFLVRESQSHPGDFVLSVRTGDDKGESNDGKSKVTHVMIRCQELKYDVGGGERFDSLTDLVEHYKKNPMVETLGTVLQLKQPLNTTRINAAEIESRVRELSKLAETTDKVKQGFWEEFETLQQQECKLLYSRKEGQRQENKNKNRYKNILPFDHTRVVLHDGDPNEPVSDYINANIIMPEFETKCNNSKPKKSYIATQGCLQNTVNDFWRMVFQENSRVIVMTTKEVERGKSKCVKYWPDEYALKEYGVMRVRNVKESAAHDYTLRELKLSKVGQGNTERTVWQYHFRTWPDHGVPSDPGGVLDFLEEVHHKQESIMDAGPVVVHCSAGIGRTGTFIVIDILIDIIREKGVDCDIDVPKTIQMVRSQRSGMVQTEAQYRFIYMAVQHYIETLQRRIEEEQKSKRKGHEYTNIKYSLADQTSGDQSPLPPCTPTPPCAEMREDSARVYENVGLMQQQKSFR
- Assay Procedure: SHP2 degradation in MV 411 cells by Western blot (median degradation concentration)
- Format: cell-based
- Condition Parameters: 24 hours with compound, SHP-2 antibody Western blot, concentration of the median degradation from exposure gray scale
Measurement Kind: DC50

[[record]]
molecule = "CCOc1cc2oc(-c3ccc(OCCOCCOCCOCCOc4cccc5c4C(=O)N(C4CCC(=O)NC4=O)C5=O)cc3Cl)cc(=O)c2cc1-c1ccc(S(C)(=O)=O)cc1F (stereo not drawn) [Compound 28]"
measurement_kind = "DC50"
observed_measurement = "110 nM"

[[record]]
molecule = "CCOc1cc2oc(-c3ccc(OCCOCCOCCOCCOc4cccc5c4C(=O)N(C4CCC(=O)NC4=O)C5=O)cc3Cl)cc(=O)c2cc1-c1cc(NC(=O)Nc2ccccc2)cc(C(N)=O)c1 (stereo not drawn) [Compound 71]"
measurement_kind = "DC50"
observed_measurement = "> 250 nM"


What the record says about CCOc1cc2oc(-c3ccc(OCCOCCOCCOCCOc4cccc5c4C(=O)N(C4CCC(=O)NC4=O)C5=O)cc3Cl)cc(=O)c2cc1-c1cc(C(N)=O)cc(-c2cccnc2)c1 (stereo not drawn) [Compound 57] : DC50 is > 1000 nM
